- method_notes: Storage of aqueous solution or slurry for 60 days: HPLC analysis of components and appearance
- Type: physicochemical
- protocol_conditions: keeping temperature 40° C.
For each entry below, report its Content of the compound of the formula [I] in aqueous solution after kept for 60 days value.

Take each entry in turn and give its Content of the compound of the formula [I] in aqueous solution after kept for 60 days.
1. O=C([O-])CN(CC(=O)[O-])c1ccccc1C(=O)[O-].[Fe+3] [compound 42, reference compound]
2. O=C([O-])CC(NCCNC(CC(=O)[O-])C(=O)[O-])C(=O)[O-].[Na+].[Na+].[Na+].[Na+] (centres unmarked)
3. O=C([O-])CN(CC(=O)[O-])c1ccccc1C(=O)[O-].[Fe+3] [Example 110]

Resp:
1: 40.6 wt. %; 2: 74.1 wt. %; 3: 49.3 wt. %

Take each entry in turn and give its Content of the compound of the formula [I] in aqueous solution after kept for 60 days.
1. O=C([O-])CN(CC(=O)[O-])c1ccccc1C(=O)[O-].[Fe+3] [Example 111]
2. O=C([O-])CC(NCCCNC(CC(=O)[O-])C(=O)[O-])C(=O)[O-].[Na+].[Na+].[Na+].[Na+] (centres unmarked)

Resp:
["39.8 wt. %", "74.1 wt. %"]

---

- method_notes: Compression strength (hardening property) of powder stored under load for 2 months
- Format: physicochemical
- protocol_conditions: Load 100 (table head [Kg]; text 100 g/cm^2); 20-30° C., relative humidity 40-70%
observation_type: Compression strength after stored for 2 months (Kg/cm^2)
Numbers only, in Kg/cm^2.

Some solved cases for reference:
>  <compound>
O=C(O)CN(CCS(=O)(=O)O)CC(=O)O [Example 37, taurine-N,N-diacetic acid]

>  <unit_annotation>
Kg/cm^2

>  <measured_result>
1.0

$$$$
>  <compound>
O=C(O)CCN[C@@H](CC(=O)O)C(=O)O [Example 18, (S)-aspartic acid-N-monopropionic acid]

>  <unit_annotation>
Kg/cm^2

>  <measured_result>
1.2

$$$$
>  <compound>
O=C([O-])CN[C@@H](CC(=O)[O-])C(=O)[O-].[Na+].[Na+].[Na+] [compound 1, reference compound]

>  <unit_annotation>
Kg/cm^2

>  <measured_result>
2.6

$$$$

Shifting focus to the compound that follows.
Req: State its Compression strength after stored for 2 months for this compound: O=C(O)CC(NCCCNC(CC(=O)O)C(=O)O)C(=O)O (stereo not shown) [compound 23, 1,3-propanediaminedisuccinic acid, reference compound]
Resp: 2.7

---

- method_notes: Compression strength (hardening property) of powder stored under load for 2 months
- Type: physicochemical
- protocol_conditions: Load 100 (table head [Kg]; text 100 g/cm^2); 20-30° C., relative humidity 40-70%
- Protocol: Method for the Measurement of Compression Strength (1) A test sample (500 g) is put in a poly-ethylene bag of 20 cm×20 cm in a room at a temperature of 20-30° C. and a relative humidity of 40-70%. The powder is levelled to an area of 20 cm×20 cm and air is forced out of the bag, and, then, the bag is sealed. This bag is further put in a kraft bag and this kraft bag is sealed. (2) The kraft bag of (1) is placed horizontally on a flat plate and a plate is put thereon. […]
Param label: returns label 1 when Compression strength after stored for 2 months < 1 Kg/cm^2, returns label 0 otherwise, including exact equality.

>  <molecule>
O=C(O)CN(CC(=O)O)c1ccccc1C(=O)O [Example 39, anthranilic acid-N,N-diacetic acid]

>  <category>
label 0

$$$$

Req: Is Compression strength after stored for 2 months strictly under 1 Kg/cm^2 for the entry O=C(O)CC(NCCCNC(CC(=O)O)C(=O)O)C(=O)O (centres unmarked) [Example 68, 1,3-propanediaminedisuccinic acid] ?
Resp: label 0

Req: Is Compression strength after stored for 2 months strictly under 1 Kg/cm^2 for the entry O=C(O)C[C@H](NCCN[C@@H](CC(=O)O)C(=O)O)C(=O)O [compound 21, ethylenediaminedisuccinic acid, reference compound] ?
Resp: label 0

Req: Is Compression strength after stored for 2 months strictly under 1 Kg/cm^2 for the entry O=C([O-])CC(NCCCNC(CC(=O)[O-])C(=O)[O-])C(=O)[O-].[Na+].[Na+].[Na+].[Na+] (centres unmarked) [compound 18, reference compound] ?
Resp: label 0

Req: Is Compression strength after stored for 2 months strictly under 1 Kg/cm^2 for the entry CN(CC(=O)O)CC(=O)O [Example 38, N-methyliminodiacetic acid] ?
Resp: label 0

Req: Is Compression strength after stored for 2 months strictly under 1 Kg/cm^2 for the entry O=C([O-])CN(CC(=O)[O-])c1ccccc1C(=O)[O-].[Na+].[Na+].[Na+] [Example 30] ?
Resp: label 0

Req: Is Compression strength after stored for 2 months strictly under 1 Kg/cm^2 for the entry CN(CC(=O)[O-])CC(=O)[O-].[Na+].[Na+] [Example 29, disodium N-methyliminodiacetate] ?
Resp: label 0

Req: Is Compression strength after stored for 2 months strictly under 1 Kg/cm^2 for the entry O=C(O)C[C@H](NCCN[C@@H](CC(=O)O)C(=O)O)C(=O)O [compound 22, (S,S)-ethylenediaminedisuccinic acid, reference compound] ?
Resp: label 0

Req: Is Compression strength after stored for 2 months strictly under 1 Kg/cm^2 for the entry O=C([O-])CN(CCS(=O)(=O)[O-])CC(=O)[O-].[Na+].[Na+].[Na+] [compound 9, reference compound] ?
Resp: label 0

Req: Is Compression strength after stored for 2 months strictly under 1 Kg/cm^2 for the entry O=C(O)CN[C@@H](CC(=O)O)C(=O)O [Example 17, (S)-aspartic acid-N-monoacetic acid] ?
Resp: label 1

Req: Is Compression strength after stored for 2 months strictly under 1 Kg/cm^2 for the entry C[C@@H](C(=O)O)N(CC(=O)O)CC(=O)O [compound 8, (S)-α-alanine-N,N-diacetic acid, reference compound] ?
Resp: label 0

Req: Is Compression strength after stored for 2 months strictly under 1 Kg/cm^2 for the entry O=C(O)C[C@H](NCC(O)CN[C@@H](CC(=O)O)C(=O)O)C(=O)O [Example 70] ?
Resp: label 1

Req: Is Compression strength after stored for 2 months strictly under 1 Kg/cm^2 for the entry O=C([O-])C[C@H](NCCN[C@@H](CC(=O)[O-])C(=O)[O-])C(=O)[O-].[Fe+3].[NH4+] [compound 26, reference compound] ?
Resp: label 0
